# ASSAY EXPLANATION: soluble on expression in E. coli; label from the status in PepcDB or PDB records
QUANTITY NAME: soluble on expression in E. coli

# SEQUENCE, QUANTITY NAME, RESULT
records = [
    ("MGSDKIHHHHHHMNKINRVAIVGGTHGNEFTGAFLVKKFQQFPEVIQKPSFETLTILGNPKAFEAGKRYIEKDLNRCFLTESLQNTNLSSYEDIRAKQIAGVLGAENKPNVDVVIDLHSTTANMGLSIILGNQDPFLLKLCAYLSDINPLVKVCYTIPEKGSNFLRSLNKLGFVIEVGAVAQGVLNAELFQKTEQLIYTILDYLEQYNRGNIPKINNLLALYKFTGTVDYPRNENGDIQGMIHPDIQFRDYEPLNPGDPLFLTLDGKAIAYEGTSTVYPIFINEAAYYEKGIAMLFTEKQLINPSS", "soluble on expression in E. coli", "not soluble"),
    ("DVFVYGSFQEPSVVNLILECSPVMVPAQLHGYHVYRLKGRLHACISPSENGLINGKILTGLTDSQLENLDMIEGSEYVRKTVEVVLTDTSEKKQVETYVWANKDDPNLYGEWDFEEWRRLHMDKFIEASTKFIEWKKNPDG", "soluble on expression in E. coli", "not soluble"),
]
